These entries and their values trace back to the supplement of paper PMC8728848.

target: Gal(b1-3)[Neu5Ac(a2-6)]GalNAc; assay: glycan array binding signal (z-score within array); higher = stronger binding; settings: glycan notation: IUPAC condensed, linker removed
The entries come from a sample that favours the strongest signals as a whole.
Each entry below carries its reported glycan array binding signal (z-score).
observed_property: glycan array binding signal (z-score)

{"binder": "Neuropilin-1 (Homo sapiens), O14786 (protein) FKCMEALGMESGEIHSDQITASSQYSTNWSAERSRLNYPENGWTPGEDSYREWIQVDLGLLRFVTAVGTQGAISKETKKKYYVKTYKIDVSSNGEDWITIKEGNKPVLFQGNTNPTDVVVAVFPKPLITRFVRIKPATWETGISMRFEVYGCKITDYPCSGMLGMVSGLISDSQITSSNQGDRNWMPENIRLVTSRSGWALPPAPHSYINEWLQIDLGEEKIVRGIIIQGGKHRENKVFMRKFKIGYSNNGSDWKMIMDDSKRKAKSFEGNNNYDTPELRTFPALSTRFIRIYPERATHGGLGLRMELLGCEVE", "result": -0.23}
{"binder": "CLEC5A (Homo sapiens), Q9NY25 (protein) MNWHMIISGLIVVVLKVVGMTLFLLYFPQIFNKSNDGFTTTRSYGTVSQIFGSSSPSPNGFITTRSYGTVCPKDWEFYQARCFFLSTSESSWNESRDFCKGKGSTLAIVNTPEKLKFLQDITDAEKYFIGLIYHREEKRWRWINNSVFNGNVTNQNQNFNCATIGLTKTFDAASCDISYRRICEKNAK", "result": -0.023}
{"binder": "Langerin K299A/K313A (Homo sapiens), Q9UJ71 (protein) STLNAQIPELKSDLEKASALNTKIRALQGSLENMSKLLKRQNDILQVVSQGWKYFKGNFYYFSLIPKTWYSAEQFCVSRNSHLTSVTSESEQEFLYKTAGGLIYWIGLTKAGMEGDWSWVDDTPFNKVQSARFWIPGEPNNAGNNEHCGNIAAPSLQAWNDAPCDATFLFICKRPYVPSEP", "result": 0.445}
{"binder": "CGL (Crenomytilus grayanus), H2FH31 (protein) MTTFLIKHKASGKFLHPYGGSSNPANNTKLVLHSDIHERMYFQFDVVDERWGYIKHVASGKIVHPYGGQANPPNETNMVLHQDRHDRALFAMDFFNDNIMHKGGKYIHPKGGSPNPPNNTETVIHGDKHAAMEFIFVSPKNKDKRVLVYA", "result": -0.398}
{"binder": "Protectin (Homo sapiens), P13987 (protein) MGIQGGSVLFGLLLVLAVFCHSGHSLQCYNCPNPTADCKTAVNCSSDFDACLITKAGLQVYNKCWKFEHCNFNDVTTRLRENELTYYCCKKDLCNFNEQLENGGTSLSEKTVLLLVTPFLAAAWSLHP", "result": 0.383}
{"binder": "Tap1 (Sordaria macrospora), Q50IV4 (protein) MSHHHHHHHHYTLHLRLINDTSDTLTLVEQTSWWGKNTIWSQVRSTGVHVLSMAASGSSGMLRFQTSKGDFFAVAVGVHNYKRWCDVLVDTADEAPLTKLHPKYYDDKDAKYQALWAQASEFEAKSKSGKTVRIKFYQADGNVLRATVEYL", "result": 4.09}
